# targetUnderTest: human glutathione S-transferase A1-1 (GSTA1-1) (Homo sapiens, UniProt P08263)
# Construct: made in house; host or cells: E. coli
# experimentalProtocol: CDNB assay of GST activity and inhibition, GST A1-1
# Type: biochemical
# assaySetup: second value of the cell GSTP1-1/GSTA1-1, 20 nM GST
Measured pIC50 by item
# reply with the number alone; pIC50 is -log10 of concentration in mol/L

# annotated cases, reported pIC50 shown
C=C(CC)C(=O)c1ccc(OCC(=O)NCCCC(=O)NCCCC(=O)NCCCC(=O)NCc2cc(CNC(=O)CCCNC(=O)CCCNC(=O)CCCNC(=O)COc3ccc(C(=O)C(=C)CC)c(Cl)c3Cl)cc(C(N)=O)c2)c(Cl)c1Cl; 7.02
C=C(CC)C(=O)c1ccc(OCC(=O)NCCCCCC(=O)NCc2cc(CNC(=O)CCCCCNC(=O)COc3ccc(C(=O)C(=C)CC)c(Cl)c3Cl)cc(C(N)=O)c2)c(Cl)c1Cl; 7.40

// switching to the query compound
// recorded pIC50 for `C=C(CC)C(=O)c1ccc(OCC(=O)NCCCCCC(=O)NCc2cccc(CNC(=O)CCCCCNC(=O)COc3ccc(C(=O)C(=C)CC)c(Cl)c3Cl)c2)c(Cl)c1Cl` : 7.19

----------
# targetUnderTest: human glutathione S-transferase A1-1 (GSTA1-1) (Homo sapiens, UniProt P08263)
# Construct: made in house; host or cells: E. coli
# experimentalProtocol: CDNB assay of GST activity and inhibition, GST A1-1
# Assay type: biochemical
# assaySetup: second value of the cell GSTP1-1/GSTA1-1, 20 nM GST
readoutName: pIC50
As a rule, pIC50 stands for the negative log10 of the concentration, concentration in M.

The following molecules have reported results that may help.
CCC(CSCC(NC(=O)CCC(N)C(=O)O)C(=O)NCC(=O)O)C(=O)c1ccc(OCC(=O)NCCCC(=O)NCc2cccc(C(N)=O)c2)c(Cl)c1Cl (centres unmarked) [IIf*, reference compound]; 5.23
NC(CCC(=O)NC(CSc1ccc(C(=O)OCCCOC(=O)c2cccc(C(=O)OCCCOC(=O)c3ccc(SCC(NC(=O)CCC(N)C(=O)O)C(=O)NCC(=O)O)c([N+](=O)[O-])c3)c2)cc1[N+](=O)[O-])C(=O)NCC(=O)O)C(=O)O (centres unmarked); 5.48

Value of pIC50 reported for the molecule `C=C(CC)C(=O)c1ccc(OCC(=O)Nc2cccc(NC(=O)COc3ccc(C(=O)C(=C)CC)c(Cl)c3Cl)c2)c(Cl)c1Cl` is 6.13

----------
# targetUnderTest: human glutathione S-transferase P1-1 (GSTP1-1) (Homo sapiens)
# Construct: made in house; host or cells: E. coli
# Sequence (P09211 2-210 limits assumed): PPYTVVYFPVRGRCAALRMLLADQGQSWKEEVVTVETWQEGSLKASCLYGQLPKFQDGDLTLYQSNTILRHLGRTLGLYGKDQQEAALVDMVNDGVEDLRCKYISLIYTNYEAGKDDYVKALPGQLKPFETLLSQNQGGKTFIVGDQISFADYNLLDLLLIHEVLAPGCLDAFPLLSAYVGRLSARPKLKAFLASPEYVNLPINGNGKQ
# experimentalProtocol: CDNB assay of GST activity and inhibition, GST P1-1
# Assay type: biochemical
# assaySetup: versus corresponding ligand domain (GS-NB/IId, IIg, IIId, IVk)
readoutName: fold greater affinity for GSTP1-1 (lower IC50) than the ligand domain alone

Measured fold greater affinity for GSTP1-1 (lower IC50) than the ligand domain alone, CCC(CSCC(NC(=O)CCC(N)C(=O)O)C(=O)NCC(=O)O)C(=O)c1ccc(OCC(=O)NCCCC(=O)NCc2cc(CNC(=O)CCCNC(=O)COc3ccc(C(=O)C(CC)CSCC(NC(=O)CCC(N)C(=O)O)C(=O)NCC(=O)O)c(Cl)c3Cl)cc(C(N)=O)c2)c(Cl)c1Cl (stereo not shown) [IIe] : 30 fold

----------
# targetUnderTest: human glutathione S-transferase A1-1 (GSTA1-1) (Homo sapiens)
# Construct: made in house; host or cells: E. coli
# Sequence (P08263 1-222): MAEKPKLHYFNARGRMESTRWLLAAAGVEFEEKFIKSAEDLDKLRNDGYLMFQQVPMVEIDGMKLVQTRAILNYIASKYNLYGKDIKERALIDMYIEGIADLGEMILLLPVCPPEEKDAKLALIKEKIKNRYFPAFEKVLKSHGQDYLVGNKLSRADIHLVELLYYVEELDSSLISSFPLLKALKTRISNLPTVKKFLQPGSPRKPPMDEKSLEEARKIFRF
# experimentalProtocol: CDNB assay of GST activity and inhibition, GST A1-1
# Format: biochemical
# assaySetup: second value of the cell GSTP1-1/GSTA1-1, 20 nM GST
readoutName: IC50 (µM)
Unit µM implied. Number only.

# count of solved cases: 2
C=C(CC)C(=O)c1ccc(OCC(=O)NCc2cc(CNC(=O)COc3ccc(C(=O)C(=C)CC)c(Cl)c3Cl)cc(C(N)=O)c2)c(Cl)c1Cl; 0.0297
C=C(CC)C(=O)c1ccc(OCC(=O)NCc2cccc(CNC(=O)COc3ccc(C(=O)C(=C)CC)c(Cl)c3Cl)c2)c(Cl)c1Cl; 0.025

Proceed to the following item.
Case CCOC(=O)c1ccc(SCC(NC(=O)CCC(N)C(=O)O)C(=O)NCC(=O)O)c([N+](=O)[O-])c1 (centres unmarked) [IId*, reference compound] , human glutathione S-transferase A1-1 (GSTA1-1) (Homo sapiens), IC50 recorded as 30

----------
# targetUnderTest: Plasmodium GST (pGST) (Plasmodium falciparum, UniProt Q8ILQ7)
# Construct: gift from Dr. Katja Becker (Justus Liebig University of Giessen)
# Sequence (Q8ILQ7 whole entry): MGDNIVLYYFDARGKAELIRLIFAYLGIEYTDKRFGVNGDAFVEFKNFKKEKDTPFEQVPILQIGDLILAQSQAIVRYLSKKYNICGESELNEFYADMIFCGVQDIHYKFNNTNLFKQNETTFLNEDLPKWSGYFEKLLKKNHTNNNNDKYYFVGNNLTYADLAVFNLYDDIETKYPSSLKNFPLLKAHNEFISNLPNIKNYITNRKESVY
# experimentalProtocol: CDNB assay, Plasmodium GST
# Format: biochemical
# assaySetup: CDNB assay; read-out: IC50 pGST
pIC50: −log10 of the molar value.
Reported pIC50 by item:

C=C(CC)C(=O)c1ccc(OCC(=O)NCCCCCC(=O)NCc2cccc(CNC(=O)CCCCCNC(=O)COc3ccc(C(=O)C(=C)CC)c(Cl)c3Cl)c2)c(Cl)c1Cl; ~5.82

Attention now turns to another entry.
pIC50 in this record for `C=C(CC)C(=O)c1ccc(OCC(=O)NCCCCCC(=O)NCc2cc(CNC(=O)CCCCCNC(=O)COc3ccc(C(=O)C(=C)CC)c(Cl)c3Cl)cc(C(N)=O)c2)c(Cl)c1Cl` : ~5.48

----------
These records show pIC50 for human glutathione S-transferase P1-1 (GSTP1-1) (Homo sapiens, UniProt P09211).
As a rule, pIC50 stands for the negative log10 of the concentration, concentration in M.

Solved entries (count: 2):
NC(=O)c1cc(CNC(=O)CCNCCS(=O)(=O)c2cccc(Nc3cc(S(=O)(=O)O)c(N)c4c3C(=O)c3ccccc3C4=O)c2)cc(CNC(=O)CCNCCS(=O)(=O)c2cccc(Nc3cc(S(=O)(=O)O)c(N)c4c3C(=O)c3ccccc3C4=O)c2)c1; 6.79
NC(=O)c1cccc(CNC(=O)CCCC(=O)NCSCC(NC(=O)CCC(N)C(=O)O)C(=O)NCC(=O)O)c1 (stereo not shown) [Ih*, reference compound]; 4.41

Lab note: next compound to report on.
Short answer on human glutathione S-transferase P1-1 (GSTP1-1) (Homo sapiens, UniProt P09211) for NC(CCC(=O)NC(CSCCCCCCCCCCCOC(=O)CCCCCCCSCC(NC(=O)CCC(N)C(=O)O)C(=O)NCC(=O)O)C(=O)NCC(=O)O)C(=O)O (stereo not shown) , pIC50: 6.70

----------
Reported values of IC50 for individual entries
# targetUnderTest: human glutathione S-transferase A1-1 (GSTA1-1) (Homo sapiens)
# Construct: made in house; host or cells: E. coli
# experimentalProtocol: CDNB assay of GST activity and inhibition, GST A1-1
# Assay type: biochemical
# assaySetup: second value of the cell GSTP1-1/GSTA1-1, 20 nM GST
# Description: GST isozymes. […] The enzyme was incubated with 10 mM dithiothreitol to ensure complete reduction of cysteine residues, followed by extensive dialysis to remove the reducing agent. […] GST assays. […] Rates were determined by measuring absorption at 340 nm (λmax of glutathione-dinitrobenzene) for 1 minute on a Beckman DU 7400 spectrophotometer. […]
Numbers only; they are read as µM.

C=C(CC)C(=O)c1ccc(OCC(=O)NCCCC(=O)NCc2cc(CNC(=O)CCCNC(=O)COc3ccc(C(=O)C(=C)CC)c(Cl)c3Cl)cc(C(N)=O)c2)c(Cl)c1Cl [IVf]; 0.014

The recorded IC50 for NC(CCC(=O)NC(CSCCCCCCCCOC(=O)CCCCCCCSCC(NC(=O)CCC(N)C(=O)O)C(=O)NCC(=O)O)C(=O)NCC(=O)O)C(=O)O (stereo not drawn) [Ia] is 0.2

----------
Measured pIC50, listed per entry for reference.
# targetUnderTest: human glutathione S-transferase A1-1 (GSTA1-1) (Homo sapiens, UniProt P08263)
# Construct: made in house; host or cells: E. coli
# experimentalProtocol: CDNB assay of GST activity and inhibition, GST A1-1
# Format: biochemical
# assaySetup: second value of the cell GSTP1-1/GSTA1-1, 20 nM GST
pIC50: −log10 of the molar value.

Illustrative cases are given below, each with its answer.
NC(=O)c1cc(CNC(=O)CCCNC(=O)CSCC(NC(=O)CCC(N)C(=O)O)C(=O)NCC(=O)O)cc(CNC(=O)CCCNC(=O)CSCC(NC(=O)CCC(N)C(=O)O)C(=O)NCC(=O)O)c1 (stereo not drawn); < 5.00
COC(=O)CCCCCCCSCC(NC(=O)CCC(N)C(=O)O)C(=O)NCC(=O)O (stereo not drawn) [If*, reference compound]; 5.42

Consider now this further molecule.
Per the records, this molecule ( NC(=O)c1cccc(CNC(=O)CCCNCCS(=O)(=O)c2cccc(Nc3cc(S(=O)(=O)O)c(N)c4c3C(=O)c3ccccc3C4=O)c2)c1 [IIIl*, reference compound] ) has pIC50 equal to < 4.70

Cited source for all entries: patent US20050004038A1
